- Experimental System: Ba/F3 V617F cells (Homo sapiens, UniProt O60674, V617F, cells depend on it)
- Sequence (O60674 whole entry V617F): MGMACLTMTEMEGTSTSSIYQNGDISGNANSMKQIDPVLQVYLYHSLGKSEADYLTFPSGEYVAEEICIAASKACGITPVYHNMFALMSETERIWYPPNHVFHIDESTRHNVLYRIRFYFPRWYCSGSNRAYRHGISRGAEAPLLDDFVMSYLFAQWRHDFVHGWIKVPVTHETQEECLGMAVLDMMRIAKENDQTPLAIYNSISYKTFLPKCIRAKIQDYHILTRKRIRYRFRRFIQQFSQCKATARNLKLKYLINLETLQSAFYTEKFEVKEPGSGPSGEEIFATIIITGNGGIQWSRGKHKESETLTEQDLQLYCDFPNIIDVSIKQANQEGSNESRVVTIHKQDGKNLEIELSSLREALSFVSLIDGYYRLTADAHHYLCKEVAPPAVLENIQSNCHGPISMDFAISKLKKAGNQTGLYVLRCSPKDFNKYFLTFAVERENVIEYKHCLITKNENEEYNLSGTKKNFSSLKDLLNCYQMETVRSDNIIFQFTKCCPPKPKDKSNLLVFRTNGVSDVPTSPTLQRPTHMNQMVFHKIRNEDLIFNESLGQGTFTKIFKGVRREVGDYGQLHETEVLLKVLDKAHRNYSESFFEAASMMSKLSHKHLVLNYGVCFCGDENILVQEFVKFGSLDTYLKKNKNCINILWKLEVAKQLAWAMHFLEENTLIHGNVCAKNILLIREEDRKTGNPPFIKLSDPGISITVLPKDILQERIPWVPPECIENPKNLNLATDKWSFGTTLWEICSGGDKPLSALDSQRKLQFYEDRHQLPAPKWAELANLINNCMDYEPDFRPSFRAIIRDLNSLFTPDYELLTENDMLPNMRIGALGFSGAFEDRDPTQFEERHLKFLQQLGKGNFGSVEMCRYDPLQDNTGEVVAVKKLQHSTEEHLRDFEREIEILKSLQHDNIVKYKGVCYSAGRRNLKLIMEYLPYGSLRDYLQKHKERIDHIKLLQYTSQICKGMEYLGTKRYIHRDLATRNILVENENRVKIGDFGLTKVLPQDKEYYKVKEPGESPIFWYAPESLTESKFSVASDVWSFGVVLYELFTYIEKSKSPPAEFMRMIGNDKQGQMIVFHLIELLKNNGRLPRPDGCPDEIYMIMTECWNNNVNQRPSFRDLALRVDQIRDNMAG
- Assay: Proliferation assay (Cell Titer-Glo, 72 h) utilizing Ba/F3 V617F cells
- Type: cell-based, mouse
- Recorded Conditions: Ba/F3 V617F cells, proliferation, level of activity to inhibit JAK2, read-out: IC50 (the source's name)
- Description: Ba/F3 V617F cells are maintained and plated in RPMI with 10% FBS. Plating density for these cells is 1×10^5 cells/mL. The cells were resuspended in a corresponding medium at a required cell density (see above). 100μ of cell suspension was added to each well of a flat bottom 96 well white plate. […] Proliferation was measured using Cell Titer-Glo. […] The Luminescence was read on the Wallac Plate Reader. […]
Property Measured: GI50

Some compounds with recorded GI50:
CN1C2CCC1CN(c1ccc(Nc3nccc(-c4ccc(N5CCOCC5)nc4)n3)cc1)C2 [compound 155] ... < 1000 nM
CC(=O)Nc1ccc(-c2ccnc(Nc3ccc(N4CC5CCC(C4)N5C)cc3)n2)cc1 [compound 162] ... < 1000 nM
CCC(=O)N1C[C@@H]2C[C@H]1CN2c1ccc(Nc2nccc(-c3ccc(NC(C)=O)nc3)n2)cc1C [compound 149] ... < 1000 nM
CCOCCCNc1ccc(-c2ccnc(Nc3ccc(N4C[C@@H]5C[C@H]4CN5C)c(C)c3)n2)cn1 [compound 186] ... < 1000 nM

Request: Record request: GI50 value, item Cc1cc(Nc2nccc(-c3ccc(-c4nnn[nH]4)nc3)n2)ccc1N1C[C@@H]2C[C@H]1CN2C [compound 115]
Result: 10000 to 20000 nM

Request: And then Cc1cc(Nc2nccc(-c3csc(N(C)C)n3)n2)ccc1N1C[C@@H]2C[C@H]1CN2C [compound 175] , what is it?
Result: 1000 to 10000 nM

Request: Please give the result for Cc1cc(Nc2nccc(-c3ccc(NCCNS(=O)(=O)C4CC4)nc3)n2)ccc1N1C[C@@H]2C[C@H]1CO2 [compound 100] too.
Result: < 1000 nM

###

Documented GI50 across a set of compounds
- Experimental System: Ba/F3 V617F cells (Homo sapiens, UniProt O60674, V617F, cells depend on it)
- Assay: Proliferation assay (Cell Titer-Glo, 72 h) utilizing Ba/F3 V617F cells
- Assay type: cell-based, mouse
- Recorded Conditions: Ba/F3 V617F cells, proliferation, level of activity to inhibit JAK2, read-out: IC50 (the source's name)

CN1C[C@@H]2C[C@H]1CN2c1ccc(Nc2nccc(-c3cnc(N4CCOCC4)nc3)n2)cc1F ... < 1 µM
CN1CC2(C)CN(c3ccc(Nc4nccc(-c5cnc6c(c5)OCCN6)n4)cc3F)CC(C)(C1)C2 ... 1 to 10 µM

Request: For the compound CN1C[C@@H]2C[C@H]1CN2c1ccc(Nc2nccc(-c3cncc(S(C)(=O)=O)c3)n2)cc1F , what GI50 is on record?
Result: < 1 µM

Request: Same again, this time with CN1C[C@@H]2C[C@H]1CN2c1ccc(Nc2nccc(-c3ccnc(N4CCOCC4)c3F)n2)cc1F
Result: 1 to 10 µM

Request: Another compound to look at: COc1ccc2cc(-c3ccnc(Nc4ccc(N5C[C@@H]6C[C@H]5CN6C)c(C)c4)n3)[nH]c2c1
Result: < 1 µM
